# assayedTarget: CYP17 (human testicular microsome) (Homo sapiens)
# Construct: using microsomal fraction from human testis (Celsis Cat #S00110) as the enzyme source; tissue Celsis S00110; host or cells: human testis microsomal fraction
# Sequence (P05093 1-508): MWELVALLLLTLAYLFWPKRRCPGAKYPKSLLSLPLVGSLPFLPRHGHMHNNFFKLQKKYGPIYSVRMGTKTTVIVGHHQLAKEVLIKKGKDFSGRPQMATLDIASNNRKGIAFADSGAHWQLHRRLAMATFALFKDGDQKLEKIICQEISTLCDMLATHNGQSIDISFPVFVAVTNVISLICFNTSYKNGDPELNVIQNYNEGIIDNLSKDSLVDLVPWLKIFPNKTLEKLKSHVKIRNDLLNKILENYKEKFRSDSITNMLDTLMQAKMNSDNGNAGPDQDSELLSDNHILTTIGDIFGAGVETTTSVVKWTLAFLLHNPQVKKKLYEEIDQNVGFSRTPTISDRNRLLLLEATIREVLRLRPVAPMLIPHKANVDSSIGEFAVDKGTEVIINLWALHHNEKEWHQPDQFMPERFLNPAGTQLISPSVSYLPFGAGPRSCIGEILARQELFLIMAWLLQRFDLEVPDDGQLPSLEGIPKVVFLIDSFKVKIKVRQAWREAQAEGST
# protocolDescription: CYP17 enzymatic assay (% inhibition at 1 nM) (Biological Example 12)
# Format: biochemical
# runConditions: compound at 1 nM, read-out: CYP17 enzymatic assay % inhibition at 1 nM (Biological Example No. 12)
quantity: inhibition at 0.001 µM

C#C[C@@]1(O)CC[C@@]2(C)C(CCC3C2CC[C@]2(C)C(c4cccnc4)=CCC32)C1 (stereo partly shown) [Compound 257] ... 10 to 50%
C[C@]12CC[C@@H](NS(C)(=O)=O)CC1=CCC1C2CC[C@]2(C)C(c3cccnc3)=CCC12 (stereo partly shown) [Compound 225] ... 10 to 50%
C[C@@]1(O)CC[C@@]2(C)C(CCC3C2CC[C@]2(C)C(c4cccnc4)=CCC32)C1 (stereo partly shown) [Compound 253] ... < 10%
C[C@]12CCC3C(CCC4=CC(=NO)CC[C@@]43C)C1=CC=C2c1cccnc1 (stereo partly shown) [Compound 288] ... > 50%
C[C@]12CC[C@H]3[C@@H](CC(=O)C45CC4CC[C@]35C)C1=CC=C2c1cccnc1 (stereo partly shown) [Compound 250] ... > 50%

Exercise: For the molecule CCC(=O)N1CCC2CCC3C(CC[C@]4(C)C(c5cccnc5)=CCC34)[C@@]2(C)CC1 (stereo partly shown) [Compound 436] , what inhibition at 0.001 µM is on record?
Key: 10 to 50%

Exercise: Item: COc1cncc(C2=CC[C@H]3[C@@H]4CC[C@H]5C[C@@H](OC)CC[C@]5(C)[C@H]4CC[C@]23C)c1 [Compound 456]
Key: 10 to 50%

These measurements were taken from patent US20130252930A1.
